Value source: patent US20220017572A1

Below, each entry is listed with its recorded activity at 10 µM.
Target: human furin (Homo sapiens, UniProt P09958)
Sequence (P09958 108-794): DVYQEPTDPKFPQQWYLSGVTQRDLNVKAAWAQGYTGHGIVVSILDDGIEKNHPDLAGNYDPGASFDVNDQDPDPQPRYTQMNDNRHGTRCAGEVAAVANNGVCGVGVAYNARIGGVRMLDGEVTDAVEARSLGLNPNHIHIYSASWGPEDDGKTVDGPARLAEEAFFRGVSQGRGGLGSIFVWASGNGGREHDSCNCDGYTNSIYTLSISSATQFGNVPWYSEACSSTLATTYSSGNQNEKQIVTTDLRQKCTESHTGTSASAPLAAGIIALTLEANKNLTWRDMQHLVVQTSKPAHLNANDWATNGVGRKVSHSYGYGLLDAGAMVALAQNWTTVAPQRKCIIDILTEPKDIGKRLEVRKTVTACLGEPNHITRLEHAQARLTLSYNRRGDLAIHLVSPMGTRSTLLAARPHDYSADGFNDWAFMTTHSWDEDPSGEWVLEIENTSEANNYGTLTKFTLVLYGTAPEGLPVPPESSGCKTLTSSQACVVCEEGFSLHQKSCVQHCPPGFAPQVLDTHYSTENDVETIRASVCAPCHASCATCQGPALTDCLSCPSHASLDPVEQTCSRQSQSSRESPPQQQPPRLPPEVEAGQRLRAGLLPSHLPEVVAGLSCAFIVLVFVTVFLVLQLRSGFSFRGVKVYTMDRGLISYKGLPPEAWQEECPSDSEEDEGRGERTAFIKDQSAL
Assay: Human furin inhibition, hydrolysis of Ac-RVRR-MCA
Assay type: biochemical
Conditions: 10 μM inhibitor, 36.5° C.
Method: The enzyme was dissolved in 1 mL MES buffer (10 mM), 1 mM CaCl2, pH 7.0 at 36.5° C. […] The residual activity was measured in a Hitachi F2500 spectrofluorimeter, and plots were fitted using the Grafit® software (Erithracus Software, Horley, Surrey, UK). All the assays were calculated by the Morrison equation for competitive inhibition (eq. 1, [Morrison, 1969]). […]
Residues, ends and D or L forms follow the SMILES beside them.
Answer with a number only, understood to be in %.

CCCCCCCCCCCCCCCCNC(=O)[C@H](CCCCN)NC(=O)CNC(=O)CNC(=O)[C@H](CCCCN)NC(=O)CCCCCCCCCCCCCCC [C16-KGGK-C16, C15H31CO-KGGK-NH—C16H33] (HELM PEPTIDE1{[CCCCCCCCCCCCCCCC(=O)[*:2]].K.G.G.K.[CCCCCCCCCCCCCCCCN[*:1]]}$$$$V2.0) ... 85

Fill in the recorded activity at 10 µM for this molecule, with human furin (Homo sapiens, UniProt P09958) as test system: CCCCCCCCCCCCCCCCNC(=O)[C@H](CCCCN)NC(=O)CNC(=O)[C@H](CCCCN)NC(=O)CCCCCCCCCCCCCCC [C16-KGK-C16, C15H31CO-KGK-NH—C16H33] 18
